This collection of values is drawn from patent US20250188176A1.

subjectOfTest: canine IL-4RA (construct not given) (canine)
method: SPR, combinatorial Fab-SASA clone
readoutName: kon (M⁻¹ s⁻¹)

1. AHF21194 (Fab, V domains shown, not shown: small tags and cut ends) VH: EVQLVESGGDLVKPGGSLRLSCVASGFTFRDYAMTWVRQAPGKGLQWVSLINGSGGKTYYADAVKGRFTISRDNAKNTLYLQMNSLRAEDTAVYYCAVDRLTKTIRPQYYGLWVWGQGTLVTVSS VL: DIVMTQTPLSLSVSPGETASISCRSSQSLLYSIGYNYLDWYLQKPGQSPQGLIYLGSKRASGVPDRFSGSGSGTDFTLRISRVEANDTGVYYCMQGLQSPLSFGQGTKLEIKR | 212000
2. AHF21190 (Fab, V domains shown, not shown: small tags and cut ends) VH: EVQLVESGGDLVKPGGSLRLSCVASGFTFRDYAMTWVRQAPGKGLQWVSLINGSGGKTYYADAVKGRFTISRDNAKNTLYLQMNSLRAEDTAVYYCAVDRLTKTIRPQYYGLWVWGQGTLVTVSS VL: DIVMTQTPLSLSVSPGETASISCRSSQSLLYSIGYNYLDWYLQKPGQSPQGLIYLGHKRASGVPDRFSGSGSGTDFTLRISRVEANDTGVYYCMQGLQSPLSFGQGTKLEIKR | 223000
3. AHF21201 (Fab, V domains shown, not shown: small tags and cut ends) VH: EVQLVESGGDLVKPGGSLRLSCVASGFTFRDYAMTWVRQAPGKGLQWVSLINGSGGKTYYADAVKGRFTISRDNAKNTLYLQMNSLRAEDTAVYYCAVDRLTKTIRPQYYGLWHWGQGTLVTVSS VL: DIVMTQTPLSLSVSPGETASISCRSSQSLLYSIGYNYLDWYLQKPGQSPQGLIYLGHKRASGVPDRFSGSGSGTDFTLRISRVEANDTGVYYCMQGLQSPLGFGQGTKLEIKR | 344000
